Data origin: the supplement of paper PMC10627819

- Tested on: S. pneumoniae D39V;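 further: first quartile when negative (synergy) and third quartile when positive (antagonism)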
- assayInfo: Bliss interaction score (quartile over a dose matrix) (fitness difference); higher = more antagonism (negative = synergy)
measuredMetric: Bliss interaction score
Enter the number alone.

O=C(O)c1cn(C2CC2)c2cc(N3CCNCC3)c(F)cc2c1=O [Ciprofloxacin] + COc1cccc2c1C(=O)c1c(O)c3c(c(O)c1C2=O)C[C@@](O)(C(=O)CO)C[C@@H]3O[C@H]1C[C@H](N)[C@H](O)[C@H](C)O1 [Doxorubicin]	-0.0454

The record that follows has no Bliss interaction score shown yet.
Input: For the compound shown here, C[C@@H]1O[C@@H]1P(=O)(O)O [Fosfomycin] + CN[C@@H]1[C@H](O[C@H]2[C@H](O[C@H]3[C@H](O)[C@@H](O)[C@H](N=C(N)N)[C@@H](O)[C@@H]3N=C(N)N)O[C@@H](C)[C@]2(O)C=O)O[C@@H](CO)[C@H](O)[C@H]1O [Streptomycin] , give the reported Bliss interaction score.
Output: -0.0437
